Listing of entries alongside the reported pEC50.
# EXPERIMENTAL_SYSTEM: Cannabinoid receptor 1 (Rattus norvegicus, UniProt P20272)
# Sequence (P20272 whole entry): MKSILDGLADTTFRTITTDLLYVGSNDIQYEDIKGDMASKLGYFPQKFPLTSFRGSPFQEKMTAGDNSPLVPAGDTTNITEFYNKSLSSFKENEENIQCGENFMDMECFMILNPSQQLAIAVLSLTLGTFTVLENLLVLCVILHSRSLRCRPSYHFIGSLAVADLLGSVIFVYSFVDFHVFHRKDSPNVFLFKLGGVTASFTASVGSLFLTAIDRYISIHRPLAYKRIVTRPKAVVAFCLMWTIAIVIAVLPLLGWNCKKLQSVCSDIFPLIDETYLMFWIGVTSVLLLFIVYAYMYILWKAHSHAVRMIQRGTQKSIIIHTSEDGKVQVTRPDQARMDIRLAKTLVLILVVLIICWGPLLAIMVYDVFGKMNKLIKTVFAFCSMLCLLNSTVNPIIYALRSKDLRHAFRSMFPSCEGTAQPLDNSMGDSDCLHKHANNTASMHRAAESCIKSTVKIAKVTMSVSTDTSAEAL
# PROCEDURE_TEXT: Agonist activity at rat CB1 receptor expressed in HEK293 cells assessed as inhibition of forskolin-induced cAMP accumulation incubated for 30 mins
# Type: functional, cell-based
# RUN_CONDITIONS: read-out: EC50
pEC50: −log10 of the molar value.
PROPERTY: pEC50

CCCCC/C=C\C/C=C\C/C=C\[C@@H](C)/C=C\CCCC(=O)N[C@H](C)CO | 7.23
CCCCC/C=C\C/C=C\C/C=C\[C@H](C)/C=C\CCCC(=O)N[C@H](C)CO | 7.55
CCCCC/C=C\[C@H](C)/C=C\C/C=C\C/C=C\CCCC(=O)NC1CC1 | 9.52
CCCCC/C=C\[C@H](C)/C=C\C/C=C\C/C=C\CCCC(=O)N[C@H](C)CO | 9.22
CCCCC/C=C\[C@H](C)/C=C\C/C=C\C/C=C\CCCC(=O)NCCO | 7.88
C#CCNC(=O)CCC/C=C\C/C=C\C/C=C\[C@@H](C)/C=C\CCCCC | 7.98
CCCCC/C=C\[C@H](C)/C=C\C/C=C\C/C=C\CCCC(=O)NC1CCC1 | 7.44
C[C@H](/C=C\C/C=C\C/C=C\CCCC(=O)NC1CC1)/C=C\CCCCCN=[N+]=[N-] | 8.72
CCCCC/C=C\C/C=C\C/C=C\[C@H](C)/C=C\CCCC(=O)NCCO | 8.32
